experimental.target: Macaca fascicularis IL-36R extracellular domain expressed with a C-terminal myc-myc-hexahistidine tag (Macaca fascicularis)
experimental.protocol: SPR Biacore T200, mAb captured by anti-hFc, 25C, PBS-T pH 7.4

binder | t½
H4H14700P2 (antibody, human IgG4 S228P, kappa, V domains shown) VH: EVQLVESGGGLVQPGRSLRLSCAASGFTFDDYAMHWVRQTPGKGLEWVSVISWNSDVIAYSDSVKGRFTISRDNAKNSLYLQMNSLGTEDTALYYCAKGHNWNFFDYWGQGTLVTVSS VL: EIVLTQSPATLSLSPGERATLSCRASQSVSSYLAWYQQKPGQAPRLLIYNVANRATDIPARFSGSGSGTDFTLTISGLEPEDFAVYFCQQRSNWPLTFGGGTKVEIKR | 14 min
H4H14728P (antibody, human IgG4 S228P, kappa, V domains shown) VH: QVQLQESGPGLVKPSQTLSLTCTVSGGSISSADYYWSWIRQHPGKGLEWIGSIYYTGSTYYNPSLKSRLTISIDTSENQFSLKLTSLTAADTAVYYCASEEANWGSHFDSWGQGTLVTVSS VL: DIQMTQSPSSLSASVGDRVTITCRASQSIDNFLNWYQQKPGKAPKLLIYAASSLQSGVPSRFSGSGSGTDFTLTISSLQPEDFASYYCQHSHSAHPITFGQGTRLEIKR | 21 min
H4H14731P (antibody, human IgG4 S228P, kappa, V domains shown) VH: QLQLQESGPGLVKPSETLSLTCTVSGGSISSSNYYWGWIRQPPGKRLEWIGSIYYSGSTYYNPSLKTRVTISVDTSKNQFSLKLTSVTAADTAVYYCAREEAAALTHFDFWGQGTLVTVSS VL: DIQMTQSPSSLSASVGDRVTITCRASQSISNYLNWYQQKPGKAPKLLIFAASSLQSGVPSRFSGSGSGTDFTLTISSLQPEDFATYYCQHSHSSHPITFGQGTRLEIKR | 8 min
H4H14709P (antibody, human IgG4 S228P, kappa, V domains shown) VH: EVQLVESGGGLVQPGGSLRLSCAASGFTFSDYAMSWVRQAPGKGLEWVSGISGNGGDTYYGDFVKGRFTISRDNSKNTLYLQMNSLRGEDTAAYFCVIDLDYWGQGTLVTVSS VL: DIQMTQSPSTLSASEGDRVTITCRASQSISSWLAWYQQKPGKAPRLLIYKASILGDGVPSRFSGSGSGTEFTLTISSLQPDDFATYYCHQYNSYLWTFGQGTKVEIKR | 22 min
H4H14708P2 (antibody, human IgG4 S228P, kappa, V domains shown) VH: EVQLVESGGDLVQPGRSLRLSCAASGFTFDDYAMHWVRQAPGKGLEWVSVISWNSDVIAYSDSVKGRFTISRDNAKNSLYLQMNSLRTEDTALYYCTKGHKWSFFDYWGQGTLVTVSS VL: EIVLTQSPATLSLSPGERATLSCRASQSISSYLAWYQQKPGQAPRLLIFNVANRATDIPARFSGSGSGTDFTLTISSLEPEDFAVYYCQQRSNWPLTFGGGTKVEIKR | 15 min
